The values you see were collected from paper PMC8046379.

For each record, write down the corresponding pIC50.
# TARGET OF ASSAY: SARS-CoV-2 Nsp3 Mac1 (Severe acute respiratory syndrome coronavirus 2, UniProt P0DTD1)
Answers are plain numbers, as −log10 of the molar value.

COMPOUND	pIC50
CN(CC1CCCOC1)c1ncc(O)cn1 (stereo not drawn)	3.01

Moving on to the next compound.
So what pIC50 did Nc1nc2nccnc2c(=O)[nH]1 get with SARS-CoV-2 Nsp3 Mac1 (Severe acute respiratory syndrome coronavirus 2, UniProt P0DTD1)?
3.11

====

# TARGET OF ASSAY: SARS-CoV-2 Nsp3 Mac1 (Severe acute respiratory syndrome coronavirus 2)
# Assay type: binding
# MEASUREMENT CONTEXT: fragments 0.188 to 3 mM concentration response
REPORTED ENDPOINT: effect on apparent melting temperature (Tma) in DSF, in words

SMILES DATA	TARGET OF ASSAY	ENDPOINT RESULT
Cn1cnc2c(N)nc(N)nc21	SARS-CoV-2 Nsp3 Mac1 (Severe acute respiratory syndrome coronavirus 2)	stabilized Mac1
Cc1c(C)n(Cc2ccco2)c2ncnc(N)c12	SARS-CoV-2 Nsp3 Mac1 (Severe acute respiratory syndrome coronavirus 2)	stabilized Mac1
